# Experimental Target: Metabotropic glutamate receptor 8 (Rattus norvegicus) (UniProt P70579)
# Sequence (P70579 whole entry, looked up): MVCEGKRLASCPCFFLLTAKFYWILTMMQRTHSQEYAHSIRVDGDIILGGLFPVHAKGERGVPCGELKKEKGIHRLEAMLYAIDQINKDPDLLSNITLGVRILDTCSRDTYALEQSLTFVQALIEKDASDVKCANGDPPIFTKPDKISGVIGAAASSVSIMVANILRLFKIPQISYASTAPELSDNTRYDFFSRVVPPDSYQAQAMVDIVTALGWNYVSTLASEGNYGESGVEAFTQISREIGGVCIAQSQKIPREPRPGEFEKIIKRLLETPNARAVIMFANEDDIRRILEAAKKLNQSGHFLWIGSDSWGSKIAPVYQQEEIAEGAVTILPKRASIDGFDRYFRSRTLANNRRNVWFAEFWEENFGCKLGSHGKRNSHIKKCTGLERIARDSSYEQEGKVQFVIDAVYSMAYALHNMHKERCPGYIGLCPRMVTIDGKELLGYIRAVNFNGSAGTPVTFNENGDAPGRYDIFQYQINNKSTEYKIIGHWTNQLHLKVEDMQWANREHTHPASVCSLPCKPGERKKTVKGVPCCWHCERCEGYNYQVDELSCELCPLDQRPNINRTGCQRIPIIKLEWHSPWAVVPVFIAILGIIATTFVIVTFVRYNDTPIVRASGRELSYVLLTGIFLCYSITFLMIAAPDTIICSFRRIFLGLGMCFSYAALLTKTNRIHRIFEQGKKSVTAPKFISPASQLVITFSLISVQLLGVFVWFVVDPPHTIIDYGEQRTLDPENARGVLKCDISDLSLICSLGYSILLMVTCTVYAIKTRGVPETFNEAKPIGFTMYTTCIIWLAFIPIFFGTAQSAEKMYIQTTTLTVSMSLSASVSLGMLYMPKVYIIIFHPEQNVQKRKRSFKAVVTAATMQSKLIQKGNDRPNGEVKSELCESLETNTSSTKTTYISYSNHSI
# Protocol Summary: mGluR8 Gi/Go-coupled signaling modulation – cell-based, rat, thallium flux, HTS, primary screen (AID 488969)
# Assay Setup: HEK293 rat mGluR8, GIRK (G protein-gated inwardly rectifying potassium channel) thallium flux, FluoZin2; at 10 µM; stronger effect = higher value; submaximal glutamate (EC20) added with thallium
Whole data set: some 110,000 compounds, median “z-score” near -0.1, cut for the highest 2% near 2. Shown is part of a subset that was picked to be rich in the highest values.
Record met whenever z-score is at 0.1 or higher; record not met when lower.

Prompt: # bool: z-score of `CCCCc1ccc(-c2nc(N)n[nH]2)cc1` >= 0.1
Response: met

Prompt: Please answer likewise for `COc1ccc(-c2nc(N)n[nH]2)cc1`
Response: not met

Prompt: Next up: `CCN(CC)CCCNC(=O)c1cc2c(=O)n(C)c3ccccc3c2n1C`
Response: met

Prompt: Moving on to `CN(CCNC(=O)c1cc2c(=O)n(C)c3ccccc3c2n1C)Cc1ccccc1`
Response: met

Prompt: Entry to check: `CC(C)OC(=O)c1cccnc1SCC(=O)N(C)c1ccccc1`
Response: not met

Prompt: Thanks! And `CCCCN(CC)CCCNC(=O)c1cc2c(=O)n(C)c3ccccc3c2n1C` ?
Response: met

Prompt: Could you do the same for `COc1cc(OC)nc(NC(=O)CSc2nnc(-c3ccccc3)n2C2CCCCC2)n1` , please?
Response: not met

Prompt: How about this compound: `CCCCN(CC)CCNC(=O)c1cc2c(=O)n(C)c3ccccc3c2n1C`
Response: met

Prompt: One more compound: Cc1ccc(S(=O)(=O)N2CCN(C(=O)CN3C(=O)NC4(CCOc5ccccc54)C3=O)CC2)cc1 (centres undefined)
Response: met
